Source listed as ChEMBL document CHEMBL4837207.

pIC50: −log10 of the molar value.
Here's a batch of molecules along with measured pIC50 for Hepatocyte growth factor receptor (Homo sapiens).
MEASURED ATTRIBUTE: pIC50

- SMILES REPRESENTATION: "Cn1cc(-c2ccc(NC(=O)c3cn(CC4CCOCC4)cc(-c4ccc(C(F)(F)F)cc4)c3=O)cc2)c2c(N)ncnc21"
  MEASURED ATTRIBUTE: "pIC50"
  NUMERIC RESULT: 7.48
- SMILES REPRESENTATION: "Cc1cc(-c2cn(C)c3ncnc(N)c23)ccc1NC(=O)c1cn(CC2CCOCC2)cc(-c2ccc(F)cc2)c1=O"
  MEASURED ATTRIBUTE: "pIC50"
  NUMERIC RESULT: 7.47
- SMILES REPRESENTATION: "CCCn1cc(-c2ccc(NC(=O)c3cn(CC4CCOCC4)cc(-c4ccc(F)cc4)c3=O)cc2)c2c(N)ncnc21"
  MEASURED ATTRIBUTE: "pIC50"
  NUMERIC RESULT: 8.29
- SMILES REPRESENTATION: "Cn1cc(-c2ccc(NC(=O)c3cn(CC4CCOCC4)cc(-c4ccc(Cl)cc4)c3=O)cc2)c2c(N)ncnc21"
  MEASURED ATTRIBUTE: "pIC50"
  NUMERIC RESULT: 7.91
- SMILES REPRESENTATION: "Cn1cc(-c2ccc(NC(=O)c3cn(CC4CCOCC4)cc(-c4ccc(F)cc4)c3=O)cc2)c2c(N)ncnc21"
  MEASURED ATTRIBUTE: "pIC50"
  NUMERIC RESULT: 8.15
- SMILES REPRESENTATION: "CN(C)C(=O)Cn1cc(C(=O)Nc2ccc(-c3cn(C)c4ncnc(N)c34)cc2)c(=O)c(-c2ccc(F)cc2)c1"
  MEASURED ATTRIBUTE: "pIC50"
  NUMERIC RESULT: 7.74

---

pIC50: −log10 of the molar value.
Here's a batch of compounds along with measured pIC50 for Hepatocyte growth factor receptor (Homo sapiens).

- COMPOUND: "Cn1cc(-c2ccc(NC(=O)c3cn(CC4CCOCC4)cc(-c4ccc(F)cc4)c3=O)c(F)c2)c2c(N)ncnc21"
  pIC50: 8.14
- COMPOUND: "COCCCn1cc(C(=O)Nc2ccc(-c3cn(C)c4ncnc(N)c34)cc2)c(=O)c(-c2ccc(F)cc2)c1"
  pIC50: 7.78
- COMPOUND: "Cn1cc(-c2ccc(NC(=O)c3cn(CC4CCCO4)cc(-c4ccc(F)cc4)c3=O)cc2)c2c(N)ncnc21 (stereo not drawn)"
  pIC50: 8.51
- COMPOUND: "Cn1cc(C(=O)Nc2ccc(-c3cn(C)c4ncnc(N)c34)cc2)c(=O)c(-c2ccc(F)cc2)c1"
  pIC50: 7.61
- COMPOUND: "Cn1cc(-c2ccc(NC(=O)c3cn(CC4CCOCC4)cc(-c4cccc(F)c4)c3=O)cc2)c2c(N)ncnc21"
  pIC50: 7.02
- COMPOUND: "Cn1cc(-c2cc(F)c(NC(=O)c3cn(CC4CCOCC4)cc(-c4ccc(F)cc4)c3=O)cc2F)c2c(N)ncnc21"
  pIC50: 8.48
- COMPOUND: "Cc1nc(N)c2c(-c3ccc(NC(=O)c4cn(CC5CCOCC5)cc(-c5ccc(F)cc5)c4=O)cc3)cn(C)c2n1"
  pIC50: 6.80
- COMPOUND: "CC(C)n1cc(C(=O)Nc2cc(F)c(-c3c[nH]c4ncnc(N)c34)cc2F)c(=O)c(-c2ccc(F)cc2)c1"
  pIC50: 8.35
